Target: CK1δ (Homo sapiens (Human), UniProt P48730)
Sequence (P48730 whole entry): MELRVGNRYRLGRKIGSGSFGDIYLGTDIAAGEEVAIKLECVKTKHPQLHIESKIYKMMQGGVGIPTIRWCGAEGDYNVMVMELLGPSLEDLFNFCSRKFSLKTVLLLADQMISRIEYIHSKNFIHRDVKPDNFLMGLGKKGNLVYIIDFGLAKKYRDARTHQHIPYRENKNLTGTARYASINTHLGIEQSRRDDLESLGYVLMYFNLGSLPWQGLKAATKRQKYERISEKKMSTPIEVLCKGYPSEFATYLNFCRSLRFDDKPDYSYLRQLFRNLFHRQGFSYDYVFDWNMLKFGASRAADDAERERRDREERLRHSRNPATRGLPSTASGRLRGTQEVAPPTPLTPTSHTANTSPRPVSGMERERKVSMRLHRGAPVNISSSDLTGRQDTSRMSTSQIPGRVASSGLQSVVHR
Test: CK1δ kinase assay (Caliper LABCHIP electrophoretic separation of fluoresceinated peptide substrate and product)
Assay type: biochemical
Conditions: 200 pM CK1δ, 50 μM ATP, 1.5 μM peptide substrate, 22 hours at room temperature; read-out: CK1δ (IC50)
pIC50: −log10 of the molar value.
MEASURED METRIC: pIC50

- N#Cc1ccc(NC(=O)N2CCn3nc(-c4cc(F)c5cn[nH]c5c4)c(C(N)=O)c3C2)cc1Cl [Compound 323]: 7.00 to 8.00
- N#Cc1ccc(NC(=O)N2CCn3nc(-c4ccc(F)c(Cl)c4)c(C(N)=O)c3C2)cc1Cl [Compound 203]: 8.00 to 11.00
- N#Cc1ccc(NC(=O)N2CCn3nc(-c4cccc(Cl)c4)c(C(N)=O)c3C2)cc1OC(F)(F)F [Compound A39]: 8.00 to 11.00

I am curious: what pIC50 value has been reported for N#Cc1ccc(NC(=O)N2Cc3c(C(N)=O)c(-c4ccc(F)c(Cl)c4)nn3CC2C2CC2)cc1 (stereo not shown) [Compound 341] ?
5.70 to 7.00

I am curious: what pIC50 value has been reported for NC(=O)c1c(-c2ccc(Cl)c(Cl)c2)nn2c1CN(C(=O)Nc1ccc(OC(F)(F)F)cc1)CC2 [Compound 213] ?
8.00 to 11.00

I am curious: what pIC50 value has been reported for CC1CN(C(=O)Nc2ccc(C#N)cc2)Cc2c(C(N)=O)c(-c3cccc(F)c3)nn21 (single isomer, unassigned) [Compound A79] ?
5.70 to 7.00

I am curious: what pIC50 value has been reported for NC(=O)c1c(-c2cccc(F)c2)nn2c1CN(C(=O)Nc1cccc(F)c1)CC2 [Compound 77] ?
8.00 to 11.00

---

The reader will find reported pIC50 values listed item by item below.
Target: CK1δ (Homo sapiens (Human), UniProt P48730)
Assay: CK1δ kinase assay (Caliper LABCHIP electrophoretic separation of fluoresceinated peptide substrate and product)
Type: biochemical
Settings: 200 pM CK1δ, 50 μM ATP, 1.5 μM peptide substrate, 22 hours at room temperature; read-out: CK1δ (IC50)
pIC50: −log10 of the molar value.

Reference set (5 entries):
- CC(=O)N1CCC(NC(=O)N2CCn3nc(-c4cccc(F)c4)c(C(N)=O)c3C2)CC1: 8.00 to 11.00
- Cc1cc(NC(=O)N2CCn3nc(-c4cc(Cl)c5[nH]ncc5c4)c(C(N)=O)c3C2)ccc1C#N: 8.00 to 11.00
- Cc1n[nH]c2c(Cl)cc(-c3nn4c(c3C(N)=O)CN(C(=O)Nc3ccc(C#N)cc3)CC4)cc12: 8.00 to 11.00
- NC(=O)c1c(-c2cccc(F)c2)nn2c1CN(C(=O)Nc1ccnnc1)CC2: 8.00 to 11.00
- N#Cc1ccc(NC(=O)N2Cc3c(C(N)=O)c(-c4ccc(Cl)c(Cl)c4)nn3[C@H]3COC[C@H]32)cc1: 8.00 to 11.00

I am curious: what pIC50 value has been reported for NC(=O)c1c(-c2cccc(F)c2)nn2c1CN(C(=O)Nc1cc(F)c(F)c(F)c1)CC2 ?
8.00 to 11.00

I am curious: what pIC50 value has been reported for NC(=O)c1c(-c2cccc(F)c2)nn2c1CN(C(=O)Nc1ccc(OC(F)F)cc1)CC2 ?
8.00 to 11.00

All values here come from patent US9598423B2.
